biological target: Human D2 Receptors (Homo sapiens); construct: expressed in transfected cells; experiment: Inhibition of [^3 H]spiperone binding to human D2 receptors
measurement type: pIC50
// pIC50 is dimensionless: -log10 of concentration (M)

Form field: reported pIC50 of COc1ccccc1N1CCN(CCCOc2ccc(-c3nc4ccccc4[nH]3)cc2)CC1 8.10

###

Reported IC50 by item:
target: Human D3 Receptors (Homo sapiens, UniProt P35462); construct: expressed in transfected cells; assay: Inhibition of [^3 H]spiperone binding to human D3 receptors; conditions: human D3, transfected cell lines; read-out: Inhibition of [^3 H]Spiperone Binding to Human D3 Receptors IC50
Sequence (P35462 whole entry): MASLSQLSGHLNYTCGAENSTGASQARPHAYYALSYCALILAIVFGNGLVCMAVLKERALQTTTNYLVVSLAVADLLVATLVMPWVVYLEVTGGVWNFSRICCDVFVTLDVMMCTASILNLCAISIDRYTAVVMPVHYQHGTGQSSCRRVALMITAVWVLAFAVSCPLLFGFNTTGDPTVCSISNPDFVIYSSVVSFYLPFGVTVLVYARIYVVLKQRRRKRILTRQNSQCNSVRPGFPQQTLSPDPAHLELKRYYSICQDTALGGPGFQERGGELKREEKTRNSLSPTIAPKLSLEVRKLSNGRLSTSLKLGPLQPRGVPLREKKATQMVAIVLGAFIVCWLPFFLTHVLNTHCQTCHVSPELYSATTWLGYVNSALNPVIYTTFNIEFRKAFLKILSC
Quick note: give the figure in nM, leave out the unit.

Consider the worked cases shown below.
entry smiles: Clc1cccc(N2CCN(CCCOc3ccc(-c4nc5ccccc5[nH]4)cc3)CC2)c1Cl
measurement type: IC50
result: 1.7
--
entry smiles: Cn1c(-c2ccc(OCCCN3CCN(c4ccccc4)CC3)cc2)nc2ccccc21
measurement type: IC50
result: 9.5
--
entry smiles: c1ccc(N2CCN(CCCCOc3ccc(-c4nc5ccccc5[nH]4)cc3)CC2)cc1
measurement type: IC50
result: 1.7
--
entry smiles: COc1ccccc1N1CCN(CCNC(=O)c2ccc(-c3nc4ccccc4[nH]3)cc2)CC1
measurement type: IC50
result: 24
--
entry smiles: c1ccc(N2CCN(CCCNc3ccc(-c4nc5ccccc5[nH]4)cc3)CC2)cc1
measurement type: IC50
result: 1.6

Form field: reported IC50 of Fc1ccc(N2CCN(CCCOc3ccc(-c4nc5ccccc5[nH]4)cc3)CC2)cc1 16

Form field: reported IC50 of CCCSc1ccccc1N1CCN(CCNC(=O)c2ccc(-c3nc4ccccc4[nH]3)cc2)CC1 19

Form field: reported IC50 of c1ccc(N2CCN(CCCCc3ccc(-c4nc5ccccc5[nH]4)cc3)CC2)cc1 1.3

###

molecular target: Human D3 Receptors (Homo sapiens, UniProt P35462); construct: expressed in transfected cells; test: Inhibition of [^3 H]spiperone binding to human D3 receptors; conditions: human D3, transfected cell lines; read-out: Inhibition of [^3 H]Spiperone Binding to Human D3 Receptors IC50
measurement type: pIC50
// pIC50 is dimensionless: -log10 of concentration (M)

Consider the worked cases shown below.
molecule: Clc1cccc(N2CCN(CCCOc3ccc(-c4nc5cccnc5[nH]4)cc3)CC2)c1Cl [Example 13]
measurement type: pIC50
result: 8.52

molecule: c1ccc(N2CCN(CCCOc3ccc(-c4nc5ccccc5[nH]4)cc3)CC2)cc1 [Example 1]
measurement type: pIC50
result: 9.00

molecule: C(#Cc1ccc(-c2nc3ccccc3[nH]2)cc1)CCN1CCN(c2ccccc2)CC1 [Example 15]
measurement type: pIC50
result: 8.77

Form field: reported pIC50 of C(=C/c1ccc(-c2nc3ccccc3[nH]2)cc1)/CCN1CCN(c2ccccc2)CC1 [Example 21] 7.09

Form field: reported pIC50 of Cc1ccc(N2CCN(CCCOc3ccc(-c4nc5ccccc5[nH]4)cc3)CC2)cc1 [Example 5] 6.99

###

biological target: Human D2 Receptors (Homo sapiens, UniProt P14416); construct: expressed in transfected cells; test: Inhibition of [^3 H]spiperone binding to human D2 receptors; conditions: human D2; read-out: Inhibition of [^3 H]Spiperone Binding to Human D2 Receptors IC50
Sequence (P14416 whole entry): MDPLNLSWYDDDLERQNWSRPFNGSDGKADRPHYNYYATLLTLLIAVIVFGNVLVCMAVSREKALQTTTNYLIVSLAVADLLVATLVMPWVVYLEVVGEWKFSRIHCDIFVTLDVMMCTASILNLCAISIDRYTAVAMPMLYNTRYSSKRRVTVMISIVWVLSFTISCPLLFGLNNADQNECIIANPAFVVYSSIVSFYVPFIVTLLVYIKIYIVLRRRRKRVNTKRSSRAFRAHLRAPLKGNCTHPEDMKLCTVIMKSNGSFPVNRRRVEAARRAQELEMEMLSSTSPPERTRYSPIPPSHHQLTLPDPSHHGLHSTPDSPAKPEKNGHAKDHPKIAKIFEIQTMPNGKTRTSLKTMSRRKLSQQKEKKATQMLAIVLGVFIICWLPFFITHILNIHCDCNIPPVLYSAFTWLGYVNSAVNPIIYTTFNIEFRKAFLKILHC
measurement type: pIC50
// pIC50 is dimensionless: -log10 of concentration (M)

compound: C1=C(c2ccccc2)CCN(CCCOc2ccc(-c3nc4ccccc4[nH]3)cc2)C1 [Example 8]
result: 6.17

compound: Clc1cccc(N2CCN(CCCOc3ccc(-c4nc5ccccc5[nH]4)cc3)CC2)c1Cl [Example 2]
result: 7.35

compound: c1ccc(N2CCN(CCCOc3ccc(-c4nc5ccccc5[nH]4)cc3)CC2)cc1 [Example 1]
result: 6.39

compound: CCCSc1ccccc1N1CCN(CCNC(=O)c2ccc(-c3nc4ccccc4[nH]3)cc2)CC1 [Example 19]
result: 6.92

Form field: reported pIC50 of COc1ccccc1N1CCN(CCNC(=O)c2ccc(-c3nc4ccccc4[nH]3)cc2)CC1 [Example 20] 7.26

###

molecular target: Human D2 Receptors (Homo sapiens); construct: expressed in transfected cells; test: Inhibition of [^3 H]spiperone binding to human D2 receptors; details: human D2; read-out: Inhibition of [^3 H]Spiperone Binding to Human D2 Receptors IC50
measurement type: pIC50
// pIC50 is dimensionless: -log10 of concentration (M)

molecule: c1ccc(N2CCN(CCCNc3ccc(-c4nc5ccccc5[nH]4)cc3)CC2)cc1 [Example 17]
pIC50: 7.66
//
molecule: Clc1cccc(N2CCN(CCCOc3ccc(-c4nc5ccccc5[nH]4)cc3)CC2)c1 [Example 12]
pIC50: 5.90

Which measured pIC50 belongs to COc1ccc(N2CCN(CCCOc3ccc(-c4nc5ccccc5[nH]4)cc3)CC2)cc1 [Example 11] , tested on Human D2 Receptors (Homo sapiens)? 6.58

Which measured pIC50 belongs to Cn1c(-c2ccc(OCCCN3CCN(c4ccccc4)CC3)cc2)nc2ccccc21 [Example 14] , tested on Human D2 Receptors (Homo sapiens)? 6.66

Which measured pIC50 belongs to c1cnc(N2CCN(CCCOc3ccc(-c4nc5ccccc5[nH]4)cc3)CC2)nc1 [Example 4] , tested on Human D2 Receptors (Homo sapiens)? 6.57

Which measured pIC50 belongs to c1ccc(N2CCN(CCCCOc3ccc(-c4nc5ccccc5[nH]4)cc3)CC2)cc1 [Example 16] , tested on Human D2 Receptors (Homo sapiens)? 7.34

Which measured pIC50 belongs to Fc1ccc(N2CCN(CCCOc3ccc(-c4nc5ccccc5[nH]4)cc3)CC2)cc1 [Example 6] , tested on Human D2 Receptors (Homo sapiens)? 6.92

Which measured pIC50 belongs to Clc1cccc(N2CCN(CCCOc3ccc(-c4nc5cccnc5[nH]4)cc3)CC2)c1Cl [Example 13] , tested on Human D2 Receptors (Homo sapiens)? 6.48

###

biological target: Human D2 Receptors (Homo sapiens); construct: expressed in transfected cells; assay: Inhibition of [^3 H]spiperone binding to human D2 receptors; details: human D2; read-out: Inhibition of [^3 H]Spiperone Binding to Human D2 Receptors IC50
pIC50: −log10 of the molar value.
Binary classification by pIC50, with 7 as an inclusive lower bound for T; all other cases are F.

molecule: O=C(NCCN1CCN(c2ccccc2)CC1)c1ccc(-c2nc3ccccc3[nH]2)cc1 [Example 18]
classification: F

molecule: Cc1ccc(N2CCN(CCCOc3ccc(-c4nc5ccccc5[nH]4)cc3)CC2)cc1 [Example 5]
classification: F

molecule: C(#Cc1ccc(-c2nc3ccccc3[nH]2)cc1)CCN1CCN(c2ccccc2)CC1 [Example 15]
classification: F

molecule: Clc1ccc(N2CCN(CCCOc3ccc(-c4nc5ccccc5[nH]4)cc3)CC2)cc1 [Example 9]
classification: F

molecule: c1ccc(N2CCN(CCCCc3ccc(-c4nc5ccccc5[nH]4)cc3)CC2)cc1 [Example 22]
classification: T

Quick check, pIC50 >= 7? CCCSc1ccccc1N1CCN(CCCOc2ccc(-c3nc4ccccc4[nH]3)cc2)CC1 [Example 7] T

###

biological target: Human D3 Receptors (Homo sapiens, UniProt P35462); construct: expressed in transfected cells; assay: Inhibition of [^3 H]spiperone binding to human D3 receptors
measurement type: pIC50
// pIC50 is dimensionless: -log10 of concentration (M)

Which measured pIC50 belongs to C1=C(c2ccccc2)CCN(CCCOc2ccc(-c3nc4ccccc4[nH]3)cc2)C1 [Example 8] , tested on Human D3 Receptors (Homo sapiens, UniProt P35462)? 7.74
